Measured GLUCOSE, listed per entry for reference.
species: Rattus norvegicus; assay: DrugMatrix - Regimen: Daily Repeat; assay type: toxicity, organism-based, Sprague-Dawley; design: regimen Daily Repeat, gender Male, age 6-8 weeks; details: in vivo, po, 0 mg/kg, 120 h, tissue Plasma, route oral GAVAGE, dose level Control, time 5 day, vehicle .5 % CMC
The reply should be a number in mg/dL, with the unit left off.

Q) Sample CC1CC(OC(=O)C(O)c2ccccc2)CC(C)(C)C1 (stereo not drawn) [CYCLANDELATE] — what was its GLUCOSE?
A) 163.33

Q) Sample CCCN1C[C@H](CSC)C[C@@H]2c3cccc4[nH]cc(c34)C[C@H]21 [PERGOLIDE] — what was its GLUCOSE?
A) 161.67

Q) Sample CCOP(=S)(OCC)Oc1nc(Cl)c(Cl)cc1Cl [CHLORPYRIFOS] — what was its GLUCOSE?
A) 155

Q) Sample CN1CCN(CCCN2c3ccccc3Sc3ccc(Cl)cc32)CC1 [PROCHLORPERAZINE] — what was its GLUCOSE?
A) 165.67

Q) Sample N=C(N)NCCN1CCCCCCC1 [GUANETHIDINE] — what was its GLUCOSE?
A) 163.33
